Target: HLA-B*44:02
Experiment: IEDB peptide-MHC binding, purified MHC/direct/fluorescence; filed as Kd, often an IC50 or EC50 that approximates it; bounds were set here for any values at or beyond the usual limits of such assays
Conditions: source organism: Isla Vista hantavirus
pKd: −log10 of the molar value.
Readout Name: pKd

SSLRYGNVL yielded pKd of ≤ 4.70

====

Molecular target: HLA-A*03:01
Test: IEDB peptide-MHC binding, purified MHC/direct/fluorescence; filed as Kd, often an IC50 or EC50 that approximates it; bounds were set here for any values at or beyond the usual limits of such assays
Details: source organism: Francisella tularensis subsp. holarctica LVS
pKd: −log10 of the molar value.
Readout Name: pKd

MFMMIFHFV yielded pKd of ≤ 4.70
